# Experiment description: NCI Yeast Anticancer Drug Screen. Data for the mec2-1 strain (AID 157)
# Measurement context: S. cerevisiae mec2-1 strain, at 50.0 µM (retest, dose inferred, filed as 5.0)
Compounds without any hit were thinned out: in the full panel of roughly 79,000, 15% have a hit. Calls of active or inactive are those of the source. Cut-off read from the data, not from the text of the source: active = growth inhibition above about 70%; inactive = the rest.
Outcome codes: active, inactive

[[record]]
compound = "O=C(CCl)N1c2ccccc2Sc2c1ccc1ccccc21"
group_label = "active"

[[record]]
compound = "CC[n+]1ccc(Nc2ccc(NC(=O)c3ccc(Nc4cc[n+](CC)c5ccc([N+](=O)[O-])cc45)cc3)cc2)cc1"
group_label = "active"

[[record]]
compound = "CCCCCCCCCCCC(=O)OC(C)C(=O)NCCCC (configuration not stated)"
group_label = "inactive"

[[record]]
compound = "c1csc(-c2[nH]nc3c2CCc2ccccc2-3)c1"
group_label = "active"

[[record]]
compound = "CC(C)CNC(=O)C(C)O (configuration not stated)"
group_label = "inactive"

[[record]]
compound = "S=C(S)OCN1CCOCC1"
group_label = "inactive"

[[record]]
compound = "CCCCCCCCCCCCCCCC[N+]1(C)CCCC1c1cccnc1 (configuration not stated)"
group_label = "active"


----------
# Experiment description: NCI Yeast Anticancer Drug Screen. Data for the cln2 rad14 strain (AID 165);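 note: 0% = growth equal to vehicle treated cultures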
# Measurement context: S. cerevisiae cln2 rad14 strain, at 50.0 µM (retest, dose inferred, filed as 5.0), hits give high values
The panel holds about 79,000 compounds, 15% with a hit somewhere; the sample as a whole holds those more often.
Measurement kind: growth inhibition (%)

[[record]]
molecule = "CC1(C)CCC[C@]2(C)[C@@H](C=O)C(C=O)=CC[C@@H]12"
measurement_kind = "growth inhibition"
meas_value = 81

[[record]]
molecule = "CC1C2c3ccccc3C(c3ccccc32)C1CO (configuration not stated)"
measurement_kind = "growth inhibition"
meas_value = 71

[[record]]
molecule = "CCOC(=O)C1=C(C(=O)c2ccccc2)C(c2cccc([N+](=O)[O-])c2)C(C(=O)c2ccccc2)=C(C(=O)OCC)N1"
measurement_kind = "growth inhibition"
meas_value = 27

[[record]]
molecule = "N#C/C(=N\\Nc1ccc(Cl)cc1)C(=O)C1CC1"
measurement_kind = "growth inhibition"
meas_value = 55

[[record]]
molecule = "CCOC(=O)C1(C)CCCC1N (configuration not stated)"
measurement_kind = "growth inhibition"
meas_value = 94

[[record]]
molecule = "N#CC(c1ccccc1)C(c1ccccc1)c1ccccc1 (configuration not stated)"
measurement_kind = "growth inhibition"
meas_value = 55

[[record]]
molecule = "C[C@@H]1CCC([C@@H](C)[C@H]2CC[C@H]3[C@@H]4CC[C@H]5C[C@@H](O)CC[C@]5(C)[C@H]4CC[C@]23C)=NC1"
measurement_kind = "growth inhibition"
meas_value = 98

[[record]]
molecule = "O=C1C(=O)c2cccnc2-c2ncccc21"
measurement_kind = "growth inhibition"
meas_value = 96

[[record]]
molecule = "COc1cc([C@@H]2c3cc4c(cc3[C@H](OC3OC5COC(c6ccccc6)OC5C(O)C3O)[C@H]3COC(=O)[C@H]23)OCO4)cc(OC)c1OC (some centres not stated)"
measurement_kind = "growth inhibition"
meas_value = 56

[[record]]
molecule = "C1=C(c2ccccc2)c2ccccc2C1"
measurement_kind = "growth inhibition"
meas_value = 19

[[record]]
molecule = "Cc1ccc(N2C(=O)C=CC2=O)cc1"
measurement_kind = "growth inhibition"
meas_value = 100

[[record]]
molecule = "Cc1cc2cccnc2c2ncccc12"
measurement_kind = "growth inhibition"
meas_value = 98

[[record]]
molecule = "CCN(CC)CC(O)CNc1ccc(NCC2CO2)c2c1C(=O)c1ccccc1C2=O (configuration not stated)"
measurement_kind = "growth inhibition"
meas_value = 83

[[record]]
molecule = "COc1cc(N(CCC#N)CCC#N)ccc1/C(N=Nc1ccc([N+](=O)[O-])cc1)=N/NC(=O)c1cc(Br)ccc1O"
measurement_kind = "growth inhibition"
meas_value = 11

[[record]]
molecule = "CCOS(=O)(=O)CC(C)(C)C"
measurement_kind = "growth inhibition"
meas_value = 13

[[record]]
molecule = "C=C1C(=O)OC2CC1C(OC(=O)/C=C/c1ccccc1)C/C(C)=C/CC/C(C)=C/CCC2(C)O (configuration not stated)"
measurement_kind = "growth inhibition"
meas_value = 95

[[record]]
molecule = "NCCCN(CCCN)CCCNCc1c2ccccc2c(CNCCCN(CCCN)CCCN)c2ccccc12"
measurement_kind = "growth inhibition"
meas_value = 98

[[record]]
molecule = "COC1=CC(=O)c2c(O)c3c(c(O)c2C1=O)CC(C)(O)OC3 (configuration not stated)"
measurement_kind = "growth inhibition"
meas_value = 45

[[record]]
molecule = "Cc1cc(I)nc2ccccc12"
measurement_kind = "growth inhibition"
meas_value = -18

[[record]]
molecule = "CCCOC1N(c2ccc(C)cc2)NC(=O)C1(C)C (configuration not stated)"
measurement_kind = "growth inhibition"
meas_value = 95

[[record]]
molecule = "Cc1ccccc1NC(=O)Cc1csc2[n+]1C(=O)/C(=C/c1ccc([N+](=O)[O-])cc1)S2"
measurement_kind = "growth inhibition"
meas_value = 7

[[record]]
molecule = "Clc1ccc(-n2ncc3c(Cl)nc(Cl)nc32)cc1"
measurement_kind = "growth inhibition"
meas_value = 98


----------
# Experiment description: NCI Yeast Anticancer Drug Screen. Data for the mec2-1 strain (AID 157)
# Measurement context: S. cerevisiae mec2-1 strain, at 5.0 µM (retest, dose inferred, filed as 0.5), hits give high values
The panel holds about 79,000 compounds, 15% with a hit somewhere; the sample as a whole holds those more often. *1 amine or outer side, *2 acyl side, *3 side chain or, on linkers, in order; H or OH if unused. Where a SMILES comes first, the peptide text is derived from it. Bridges are numbered along the chain shown (N, C = ends). Roman numbers before positions name the chains, in order. [ ]: non-standard residue; d: D form. Actinocin(1to9) = Cc1c2oc3c(C)ccc(C(=O)[*:2])c3nc-2c(C(=O)[*:1])c(N)c1=O; NMeV = CN[CH](C(=O)O)C(C)C; Sar = CNCC(=O)O
Measurement kind: growth inhibition (%)

[[record]]
compound = "CCc1oc2ccccc2c1C(=O)c1cc(Br)c(O)c(Br)c1"
meas_value = 11

[[record]]
compound = "NC(CS/C(Cl)=C/Cl)C(=O)O (centres undefined)"
meas_value = 47

[[record]]
compound = "c1ccc(C2NCCNC2c2ccccc2)cc1 (centres undefined)"
meas_value = 0

[[record]]
compound = "Oc1ccc(Cc2cccc(Cl)c2)c(O)c1"
meas_value = -7

[[record]]
compound = "C=C1C(=O)OC2CC3(C)CCCC(C)C3=CC12 (centres undefined)"
meas_value = 10

[[record]]
compound = "NCCN1C(=O)CNC1=S"
meas_value = -1

[[record]]
compound = "NC(=S)N/N=C/c1ncccc1O"
meas_value = -50

[[record]]
compound = "O=C(O)c1cc2c(s1)C(=O)c1sccc1C2=O"
meas_value = 33

[[record]]
compound = "COc1cccc(N=N/C(=N\\NC(=O)c2cc(Br)ccc2O)c2ccc(N(CCC#N)CCC#N)cc2OC)c1"
meas_value = 22

[[record]]
compound = "O=C1c2ccccc2-c2ccc(O)cc21"
meas_value = 17

[[record]]
compound = "Oc1ccc(/C=C/c2ccc(Cl)cc2)cc1"
meas_value = 5

[[record]]
compound = "CN(C)c1ccc(/C=C/c2cc[n+](C)c(/C=C/c3ccc(N(C)C)cc3)c2)cc1"
meas_value = 100

[[record]]
compound = "O=C(Nc1ccc(Cl)c(Cl)c1)Nc1ccccc1O"
meas_value = 6

[[record]]
compound = "C=C1C(=O)C2=CC1CCC(=O)C1(C)CCC(OC(C)=O)C(C)(C)C1CC2O (centres undefined)"
meas_value = 10

[[record]]
compound = "C=CCO/N=C/c1cc(NC(=S)c2ccoc2C)ccc1Cl"
meas_value = 6

[[record]]
compound = "CCC(C)(O)Cc1ccc(Cl)cc1 (centres undefined)"
meas_value = 1

[[record]]
compound = "O=C1C=CC2C3C(=O)N(c4ccccc4)C(=O)C3C1N2Cc1ccccc1 (centres undefined)"
meas_value = 18

[[record]]
compound = "CC1=CC(=O)C=CC1(C)C(Cl)(Cl)Cl (centres undefined)"
meas_value = -15

[[record]]
compound = "O=C(CBr)C(Br)C(Br)c1ccccc1 (centres undefined)"
meas_value = 99

[[record]]
compound = "COc1ccc(N=CC2CCCCC2=O)c([N+](=O)[O-])c1 (centres undefined)"
meas_value = 29

[[record]]
compound = "COc1ccc2nc3c4c(nccc4c2c1)-c1ncccc1C3=O"
meas_value = 31

[[record]]
compound = "Cc1c(O)ccc(SC#N)c1C"
meas_value = 2

[[record]]
compound = "O=C(Nc1cccc(C(F)(F)F)c1)Oc1ccc(Cl)c2cccnc12"
meas_value = 66

[[record]]
compound = "O=C1C(=O)c2cccnc2-c2ncccc21"
meas_value = 95

[[record]]
compound = "CC1(C)OCC(COC(c2ccccc2)(c2ccccc2)c2ccccc2)O1 (centres undefined)"
meas_value = -6

[[record]]
compound = "CNc1ncnc2nc(C)[nH]c12"
meas_value = -3

[[record]]
compound = "CCOC(=O)c1c(C)[nH]c2ccc(O)cc12"
meas_value = 1

[[record]]
compound = "C=c1c2ccccc2oc2nc3[nH]c(N)c(C#N)c(N)c3c(=N)c12"
meas_value = 1

[[record]]
compound = "COc1ccc(/C(C#N)=C/c2cccc(N)c2)cc1"
meas_value = 3

[[record]]
compound = "CCC[CH2][Sn]1([CH2]CCC)[O]C2C(CO)OC(n3ccc(N)nc3=O)C2[O]1 (centres undefined)"
meas_value = 48

[[record]]
compound = "CN(C)CCSC1=Nc2ccc(Cl)cc2C(c2ccccc2Cl)N(C)C1 (centres undefined)"
meas_value = 3

[[record]]
compound = "CCSc1nc2ccccc2o1"
meas_value = 0

[[record]]
compound = "COc1cc(N(CCC#N)CCC#N)ccc1/C(N=Nc1ccc(C(=O)O)cc1)=N/NC(=O)c1cc(Br)ccc1O"
meas_value = 12

[[record]]
compound = "CC(/C=N/NC(N)=S)Cc1ccc(C(C)C)cc1 (centres undefined)"
meas_value = 45

[[record]]
compound = "CC1OC(OC2C(OC3CCC4(C)C(CCC5(C)C4CC=C4C6CC(C)(C)CCC6(C(=O)O)CCC45C)C3(C)CO)OCC(O)C2O)C(O)C(O)C1O (centres undefined)"
meas_value = 87

[[record]]
compound = "CCC(C)(C)N(CC(=O)O)CC(=O)O"
meas_value = 2

[[record]]
compound = "Cc1cc(C(=O)c2ccccc2Cl)ccc1O"
meas_value = -5

[[record]]
compound = "CC(C)=CCCC(C)C1=C(O)C(=O)C(C)=CC1=O (centres undefined)"
meas_value = 19

[[record]]
compound = "CCCCCCCCCCCC[n+]1ccc(CCCCCCCCC)cc1"
meas_value = 100

[[record]]
compound = "CCOC(=O)C1=C(C(=O)c2ccccc2)C(c2cccc([N+](=O)[O-])c2)C(C(=O)c2ccccc2)=C(C(=O)OCC)N1"
meas_value = 5

[[record]]
compound = "CC(C)(C)C(=O)CC(c1ccccc1)c1ccccc1"
meas_value = -1

[[record]]
compound = "CCOC(=O)C1C(C(C)C)C2(C#N)C(=N)OC1(C)C2(C#N)C#N (centres undefined)"
meas_value = 6

[[record]]
compound = "CCC(C)C1NC(=O)C(NC(=O)c2c3nc4c(C(=O)NC5C(=O)NC(C(C)CC)C(=O)N6CCCC6C(=O)N(C)CC(=O)N(C)C(C(C)C)C(=O)OC5C)ccc(C)c4oc-3c(C)c(=O)c2N)C(C)OC(=O)C(C(C)C)N(C)C(=O)CN(C)C(=O)C2CCCN2C1=O (centres undefined) (I: TIP[Sar][NMeV] / II: TIP[Sar][NMeV]; ester I:1-I:C, II:1-II:C; linker I:N-II:N via Actinocin(1to9); configuration not given here)"
meas_value = 33

[[record]]
compound = "O=Cc1ccc(-c2ccc(-c3ccc(CO)s3)o2)s1"
meas_value = 11

